Data origin: paper PMC4336329

- target_entity: human ether-à-go-go-related gene (hERG) potassium channel (human, UniProt Q12809);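 also: peak tail current of the secondary pulse compared with the same well before compound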
- Sequence (Q12809 whole entry, looked up): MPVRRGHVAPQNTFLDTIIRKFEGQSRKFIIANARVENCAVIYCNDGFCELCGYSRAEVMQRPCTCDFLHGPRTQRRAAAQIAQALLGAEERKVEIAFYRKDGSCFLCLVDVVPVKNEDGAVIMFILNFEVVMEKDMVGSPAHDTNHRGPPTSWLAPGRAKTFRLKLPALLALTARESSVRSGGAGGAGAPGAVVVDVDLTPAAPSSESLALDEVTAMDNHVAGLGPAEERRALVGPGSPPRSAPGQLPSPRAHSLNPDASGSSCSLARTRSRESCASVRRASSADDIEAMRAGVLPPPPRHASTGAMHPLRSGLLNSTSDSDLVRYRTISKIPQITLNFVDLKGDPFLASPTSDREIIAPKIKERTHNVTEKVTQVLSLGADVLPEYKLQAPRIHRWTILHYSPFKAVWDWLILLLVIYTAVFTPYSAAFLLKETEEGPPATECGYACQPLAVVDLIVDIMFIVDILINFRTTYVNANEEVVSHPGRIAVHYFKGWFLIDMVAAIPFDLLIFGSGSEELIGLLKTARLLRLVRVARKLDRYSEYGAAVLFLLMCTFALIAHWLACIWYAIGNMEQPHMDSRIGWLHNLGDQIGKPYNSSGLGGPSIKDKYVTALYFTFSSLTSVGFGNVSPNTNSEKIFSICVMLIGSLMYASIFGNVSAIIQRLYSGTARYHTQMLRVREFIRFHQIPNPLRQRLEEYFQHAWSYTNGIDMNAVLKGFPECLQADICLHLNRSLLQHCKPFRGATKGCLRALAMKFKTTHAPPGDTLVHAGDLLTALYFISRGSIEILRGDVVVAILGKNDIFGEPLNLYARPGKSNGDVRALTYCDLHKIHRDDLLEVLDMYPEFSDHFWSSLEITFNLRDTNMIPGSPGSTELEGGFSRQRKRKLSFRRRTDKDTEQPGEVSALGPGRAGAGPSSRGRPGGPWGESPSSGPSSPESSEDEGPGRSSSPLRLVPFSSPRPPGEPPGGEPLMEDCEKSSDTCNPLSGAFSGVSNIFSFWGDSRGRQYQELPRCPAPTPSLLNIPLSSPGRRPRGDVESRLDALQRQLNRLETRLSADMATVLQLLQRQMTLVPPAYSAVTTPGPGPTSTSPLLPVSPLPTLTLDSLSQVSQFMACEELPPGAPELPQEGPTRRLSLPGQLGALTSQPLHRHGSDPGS
- protocol: primary screen, population patch clamp on CHO cells stably expressing hERG; higher = less effect of the substance
In all, about 310,000 compounds went through this assay and about 14,000 (4.5%) showed an effect of 50% or more. Effects have a minus sign here. The full list was thinned out, with strong results kept by preference.
Quick rule for you: hERG current change (%, negative = inhibition) at 10uM at -20% or higher means class 1, lower means class 0.

compound: Nc1ccc(Cl)c(S(=O)(=O)Nc2ccc(Cl)cc2)c1
label: class 1
--
compound: O=C(COC(=O)c1cc([N+](=O)[O-])ccc1N1CCOCC1)c1ccccc1Cl
label: class 1
--
compound: O=C(NC1CCSc2ccccc21)c1cccc([N+](=O)[O-])c1 (centres unmarked)
label: class 0
--
compound: CC(NC(=O)COC(=O)c1cc([N+](=O)[O-])ccc1N1CCOCC1)c1ccc(F)cc1 (centres unmarked)
label: class 0
--
compound: CN(Cc1ccccc1)C(=O)COC(=O)c1cc([N+](=O)[O-])ccc1N1CCOCC1
label: class 0
